Record: compiled pKi on cGMP-dependent 3',5'-cyclic phosphodiesterase (Homo sapiens) from multiple reports.
Give bare numbers, as −log10 of the molar value.

{"compound": "Cc1nc(-c2cn(C(C)c3ccc(OC(F)(F)F)cc3)nn2)cc(=O)[nH]1 (stereo not drawn)", "measurement_kind": "pKi", "number": 7.25}
{"compound": "Cc1nn2c([C@@H](C)c3ccc(C(F)(F)F)cc3)nc(CO)c2c(=O)[nH]1 (single isomer, unassigned)", "measurement_kind": "pKi", "number": 6.53}

# batch: return pKi for each of the 7 compounds below
1. Cc1nn2c([C@@H](C)c3ccc(C(F)(F)F)cc3)nc(CCO)c2c(=O)[nH]1 (single isomer, unassigned)
2. Cc1nc(-c2cn(C(C)c3cc(F)c(C(F)(F)F)cc3F)nn2)cc(=O)[nH]1 (single isomer, unassigned)
3. Cc1nc(-c2nnc(C(C)c3ccc(C(F)(F)F)cc3F)n2C)cc(=O)[nH]1 (single isomer, unassigned)
4. Cc1nc(-c2cn(C(C)c3ccc(C4CC4)cc3Cl)nn2)cc(=O)[nH]1 (single isomer, unassigned)
5. COc1ccc(Cc2nc(-c3nnn4c3CCC[C@]4(C)c3ccc(C(F)(F)F)cc3F)cc(=O)[nH]2)cc1 (single isomer, unassigned)
6. Cc1nc(-c2cnn(C(C)c3ccc(C(F)(F)F)cc3F)n2)cc(=O)[nH]1 (single isomer, unassigned)
7. CCC1(c2ccc(C(F)(F)F)cc2)CCCc2c(-c3cc(=O)[nH]c(C)n3)nnn21 (single isomer, unassigned)

1: 7.04; 2: 7.41; 3: 7.63; 4: 8.49; 5: 5.72; 6: 6.95; 7: 6.21

# batch: return pKi for each of the 4 compounds below
1. Cc1nc(-c2cn([C@H](C)c3ccc(C(F)(F)F)cc3C)nn2)cc(=O)[nH]1 (single isomer, unassigned)
2. Cc1nc(-c2cn(C(C)c3ccc(C(F)(F)F)cc3F)nn2)cc(=O)[nH]1 (single isomer, unassigned)
3. Cc1nc(-n2ncc([C@H](C)c3ccc(C(F)(F)F)cc3Cl)n2)cc(=O)[nH]1 (single isomer, unassigned)
4. Cc1nc(-n2cnc([C@H](C)c3ccc(C(F)(F)F)cc3F)n2)cc(=O)[nH]1 (single isomer, unassigned)

1: 6.88; 2: 8.15; 3: 8.38; 4: 5.92

# batch: return pKi for each of the 4 compounds below
1. Cc1nc(N)c2nnn(C3CCCCC3)c2n1
2. Cc1nc(-c2cn(C(c3ccc(C(F)(F)F)cc3F)C3CC3)nn2)cc(=O)[nH]1 (single isomer, unassigned)
3. Cc1nc(-c2nnn3c2CCC[C@@]3(C)c2ccc(C(F)(F)F)cc2)cc(=O)[nH]1 (single isomer, unassigned)
4. Cc1nn2c(C(C)c3ccc(C(F)(F)F)cc3)nc(CC#N)c2c(=O)[nH]1 (stereo not drawn)

1. 5.18
2. 8.01
3. 7.79
4. 8.21
